Biological target: Torsin-1A-interacting protein 1 (Homo sapiens) (UniProt Q5JTV8)
Sequence (Q5JTV8 whole entry, looked up): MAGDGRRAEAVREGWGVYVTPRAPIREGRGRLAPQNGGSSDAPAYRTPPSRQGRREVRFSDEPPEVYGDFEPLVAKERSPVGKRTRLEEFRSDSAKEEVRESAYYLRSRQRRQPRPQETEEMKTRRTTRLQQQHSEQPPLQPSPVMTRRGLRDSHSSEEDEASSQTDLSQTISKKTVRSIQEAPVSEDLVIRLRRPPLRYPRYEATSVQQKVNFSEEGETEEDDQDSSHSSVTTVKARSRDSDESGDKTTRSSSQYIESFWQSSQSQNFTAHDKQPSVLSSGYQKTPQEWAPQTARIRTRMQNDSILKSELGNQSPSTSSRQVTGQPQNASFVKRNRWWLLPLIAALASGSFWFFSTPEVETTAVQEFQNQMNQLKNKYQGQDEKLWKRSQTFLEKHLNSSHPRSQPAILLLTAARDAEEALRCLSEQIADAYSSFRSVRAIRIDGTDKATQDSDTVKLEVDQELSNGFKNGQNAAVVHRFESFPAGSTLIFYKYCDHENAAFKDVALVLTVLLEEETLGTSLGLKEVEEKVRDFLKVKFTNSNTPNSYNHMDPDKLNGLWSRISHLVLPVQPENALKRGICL
Assay: compound microarray binding of lysate hLAP1 – cell lysate, small-molecule microarray, COS7 lysate, 635/667 nm fluorescence, primary screen (AID 1116)
Conditions: 635 nm fluorescence, higher = more signal
Decision: composite z-score >= 0.6 yields TRUE, all other cases yield FALSE.

Use these answered entries as a reference point.
Ask: Textbook exercise: given the entry COCCOC(=O)N1C(=O)[C@@]2(c3cc(C#CCCO)ccc31)[C@H](c1ccc(OCCO)cc1)N1[C@H](c3ccccc3)[C@H](c3ccccc3)OC(=O)[C@H]1[C@@H]2C(N)=O , state whether its composite z-score is greater than or equal to 0.6.
Reply: TRUE

Ask: Textbook exercise: given the entry COc1ccc([C@H]2C[C@H]3C(I)=C[C@@H]2C(=O)[C@]32CO2)cc1 , state whether its composite z-score is greater than or equal to 0.6.
Reply: FALSE

Ask: Textbook exercise: given the entry C=CC[C@]1(C(=O)N2CCOCC2)N=C(c2ccc(OCCCO)cc2)O[C@H]1c1ccccc1N=[N+]=[N-] , state whether its composite z-score is greater than or equal to 0.6.
Reply: TRUE

Ask: Textbook exercise: given the entry [N-]=[N+]=NCc1ccccc1[C@@H]1OC(c2ccc(OCCCO)cc2)=N[C@]1(CCS(=O)(=O)c1ccccc1)C(=O)N1CCCCC1 , state whether its composite z-score is greater than or equal to 0.6.
Reply: TRUE

Ask: Textbook exercise: given the entry C=C(CCCC)/C(=C/C[C@H](OC(C)=O)c1ccccc1OCCO)c1cnc2ccccc2c1 , state whether its composite z-score is greater than or equal to 0.6.
Reply: FALSE

More entries:
Ask: Textbook exercise: given the entry [N-]=[N+]=NCc1ccccc1[C@H]1OC(c2ccc(OCCCO)cc2)=N[C@@]1(Cc1ccccc1)C(=O)N1CCCCC1 , state whether its composite z-score is greater than or equal to 0.6.
Reply: FALSE

Ask: Textbook exercise: given the entry CCCC[C@@H]1C[C@H]1[C@@H](NC(=O)c1cccnc1)c1ccc(Cl)cc1 , state whether its composite z-score is greater than or equal to 0.6.
Reply: FALSE

Ask: Textbook exercise: given the entry O=C1C2C=CC(C(O)c3ccc(-c4ccccc4)s3)N(Nc3ccccc3)C2C(=O)N1c1ccccc1 (stereo not given) , state whether its composite z-score is greater than or equal to 0.6.
Reply: FALSE

Ask: Textbook exercise: given the entry C=CCOC(=O)[C@H]1[C@@H]2C(=O)O[C@@H](c3ccccc3)[C@@H](c3ccccc3)N2[C@@H](c2ccc(OCCOC(=O)[C@H]3C[C@H]4C(=O)N[C@@H](CCCCN(C)C)C(=O)N4[C@H]3c3cccc(OCCO)c3)cc2)[C@]12C(=O)Nc1ccc(I)cc12 , state whether its composite z-score is greater than or equal to 0.6.
Reply: TRUE

Ask: Textbook exercise: given the entry O=C(O)[C@H](Cc1ccccc1)n1cc(-c2ccccc2)nn1 , state whether its composite z-score is greater than or equal to 0.6.
Reply: TRUE

====

Overview of recorded composite z-score for various compounds
Biological target: Streptavidin (Streptomyces avidinii) (UniProt P22629)
Sequence (P22629 whole entry, looked up): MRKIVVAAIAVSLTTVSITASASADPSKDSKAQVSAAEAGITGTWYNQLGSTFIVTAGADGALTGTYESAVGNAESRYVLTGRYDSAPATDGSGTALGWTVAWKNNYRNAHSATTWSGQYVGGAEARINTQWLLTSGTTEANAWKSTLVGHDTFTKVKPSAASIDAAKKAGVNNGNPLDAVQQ
Assay: compounds binding control protein streptavidin – biophysical, small-molecule microarray, 635/667 nm fluorescence, artefact control for SMM compound annotation, primary screen (AID 1147);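 further: signal reflects streptavidin binding to arrayed compounds as a control protein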
Details: higher = more signal
In your answer, state the number alone without any accompanying words.

Answered examples (5):
Ask: Specify measured composite z-score for COCC(=C=CC[C@@H](O)c1ccc(OCCO)cc1)C[C@@H](O)c1ccccn1 .
Reply: 0.556

Ask: Specify measured composite z-score for COc1ccc(NN2C(C(O)c3ccc(N(C)C)cc3)C=CC3C(=O)N(C4CCCCC4)C(=O)C32)cc1 (configuration not stated) .
Reply: 1.46

Ask: Specify measured composite z-score for CN(C)CCCCCCNC(=O)[C@@H]1C[C@@H]2C(=O)N3CCC[C@H]3C(=O)N2[C@@H]1c1ccc(O)cc1 .
Reply: -0.331

Ask: Specify measured composite z-score for O=C(O)[C@H]1C[C@H]2C(=O)N3CCC[C@H]3C(=O)N2[C@H]1c1ccc(O)cc1 .
Reply: -1.29

Ask: Specify measured composite z-score for O=C1C2C=CC(C(O)c3ccc(F)cc3)N(Nc3ccc([N+](=O)[O-])cc3)C2C(=O)N1c1ccccc1 (configuration not stated) .
Reply: 1.39

More entries:
Ask: Specify measured composite z-score for O=C(O)[C@H](Cc1ccccc1)n1cc(-c2ccccc2)nn1 .
Reply: 0.572

Ask: Specify measured composite z-score for COc1ccc(-c2cc3c(c(Cc4ccccc4)n2)[Si](C(C)C)(C(C)C)OC3)cn1 .
Reply: -0.32

Ask: Specify measured composite z-score for C=C(CCCC)/C(=C/C[C@H](OC(C)=O)c1ccc(OCCO)cc1)c1cnc2ccccc2c1 .
Reply: 0.535

Ask: Specify measured composite z-score for O=C(CS)NCCCCCNC(=O)[C@@H]1C[C@@H]2C(=O)NCC(=O)N2[C@@H]1c1ccc(O)cc1 .
Reply: -0.618

Origin of values: PubChem BioAssay
